# Target: Monoamine oxidase B (MAO-B) (Homo sapiens)
# Sequence (P27338 1-520): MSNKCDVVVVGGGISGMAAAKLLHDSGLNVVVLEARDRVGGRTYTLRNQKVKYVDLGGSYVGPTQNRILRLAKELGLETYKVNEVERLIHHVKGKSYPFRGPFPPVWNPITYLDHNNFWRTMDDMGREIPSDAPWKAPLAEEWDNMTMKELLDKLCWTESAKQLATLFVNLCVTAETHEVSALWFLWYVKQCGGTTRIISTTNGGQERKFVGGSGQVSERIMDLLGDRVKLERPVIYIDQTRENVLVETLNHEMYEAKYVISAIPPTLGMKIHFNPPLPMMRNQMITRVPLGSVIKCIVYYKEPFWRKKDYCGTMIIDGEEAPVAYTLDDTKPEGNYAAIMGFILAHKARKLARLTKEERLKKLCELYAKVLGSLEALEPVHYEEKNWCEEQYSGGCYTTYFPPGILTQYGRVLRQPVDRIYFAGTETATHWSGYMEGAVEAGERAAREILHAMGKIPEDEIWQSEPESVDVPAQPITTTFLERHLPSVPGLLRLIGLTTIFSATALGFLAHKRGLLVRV
# Test Protocol: Monoamine oxidase B inhibition (benzylamine substrate, H2O2/vanillic acid/HRP readout)
# Format: biochemical
Endpoint: pIC50
pIC50 here: minus log base 10 of the concentration, concentration in moles per litre.

Any idea what its pIC50 is? The compound is CC(C)c1cc2c(c(O)c1O)[C@@]1(C(=O)O)CCCC(C)(C)[C@@H]1CC2
5.07
